target: human complement factor D (Homo sapiens, UniProt P00746); construct: purchased R&D Systems 1824-SE; experiment: In vitro enzyme inhibition (Z-Lys-SBzl/DTNB absorbance assay); type: biochemical; conditions: Complement Factor D (R&D Systems), substrate Z-Lys-SBzl, A405 nm; read-out: CFD IC50
Sequence (P00746 26-253): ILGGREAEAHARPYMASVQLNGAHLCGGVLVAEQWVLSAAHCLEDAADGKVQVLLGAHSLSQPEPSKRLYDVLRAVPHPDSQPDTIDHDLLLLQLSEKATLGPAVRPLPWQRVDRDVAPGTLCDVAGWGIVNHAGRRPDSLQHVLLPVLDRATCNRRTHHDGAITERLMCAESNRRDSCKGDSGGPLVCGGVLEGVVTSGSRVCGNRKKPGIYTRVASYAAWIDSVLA
I'd appreciate it if you could supply IC50 values for the items below.

Observe how each entry below is paired with its result.
NC(=O)c1nn(CC(=O)N2C3CCC(C3)[C@H]2C(=O)Nc2cccc(Cl)n2)c2ccc(C3CC3)cc12 (stereo partly drawn) [Example 11]    100 to 1000 nM
NC(=O)c1nn(CC(=O)N2[C@@H]3CC[C@@H](C3)[C@H]2C(=O)Nc2cc(CO)cc(Cl)n2)c2ccccc12 [Example 105]    100 to 1000 nM

We now examine a further molecule.
For reference, reported IC50 for NC(=O)c1nn(CC(=O)N2[C@@H]3CC[C@@H](C3)[C@H]2C(=O)Nc2cccc(Cl)n2)c2ccc([N+](=O)[O-])cc12 [Example 73] stands at 1000 to 10000 nM
